Below are pKi values for Prothrombin (Homo sapiens, UniProt P00734) collected from several publications.
Numbers only, as −log10 of the molar value.

The following molecules have reported results that may help.
• N=C(N)c1ccc2cc(C(=O)Nc3cccc(OC4CCCC4)c3)ccc2c1 = 5.25
• N=C(N)NCCC(=O)N1CCN(C(=O)[C@H](Cc2cccc(C(=N)N)c2)NS(=O)(=O)Cc2ccc3ccccc3c2)CC1 = 5.59
• Cc1cnc(NCCc2ccccc2)c(=O)n1CC(=O)NCc1ccccn1 = 6.41
• N=C(N)c1ccc2c(c1)ncn2CC(=O)Nc1ccc(-c2ccccc2S(N)(=O)=O)cc1 = 5.57
• N=C(N)c1ccc(OCCCCCCOc2ccc(C(=N)N)cc2)cc1 = 6.65

Quick request: pKi for each listed item, please.
1. N=C(N)NCCC(=O)N1CCN(C(=O)[C@H](Cc2cccc(C(=N)N)c2)NS(=O)(=O)c2cccc3ccccc23)CC1
2. CN[C@H](Cc1ccccc1)C(=O)N1CCC[C@H]1C(=O)N[C@H](C=O)CCCN=C(N)N
3. Nc1ncc(CCNC(=O)[C@@H]2CCCN2C(=O)[C@H](N)C(c2ccccc2)c2ccccc2)s1

1. 5.60
2. 8.26
3. 6.71

Quick request: pKi for each listed item, please.
1. CN1CC(C)(COc2ccc(C(=N)N)cc2)Oc2cc(NC(=O)CCC(=O)O)ccc21 (stereo unspecified)
2. NCc1ccc(Cl)cc1CNC(=O)CNC(=O)C(CCc1cccc[n+]1[O-])NC(=O)C(=O)O (stereo unspecified)
3. COC(=O)CC(CCc1ccc(NS(C)(=O)=O)cc1)c1cccc(C(=N)N)c1 (stereo unspecified)
4. CCOc1cc(O[C@H]2CCOC2)cc([C@@H](Nc2ccc(C(=N)N)cc2)C(=O)O)c1
5. COc1ccc(-n2nc(Cn3cnnn3)c3c2C(=O)N(c2ccc(-c4ccccc4CN4CC[C@@H](O)C4)cc2)CC3)cc1
6. N=C(N)NNS(=O)(=O)c1ccc(NC(=O)[C@@H](Cc2ccccc2)NC(=O)OCc2ccccc2)cc1
7. CC(C)CCS(=O)(=O)N1CCC[C@H]1C(=O)NCc1ccc(C(=N)N)cc1

[5.29, 4.74, 5.51, 5.34, 6.01, 7.30, 5.57]

Quick request: pKi for each listed item, please.
1. N=C(N)c1cccc(C[C@H](NS(=O)(=O)c2cccc3ccccc23)C(=O)N2CCC(CCN=C(N)N)CC2)c1
2. CN[C@H](Cc1ccccc1)C(=O)N1CCC[C@H]1C(=O)N[C@@H](CCCNC(=N)N)C(=O)c1nc2ccccc2[nH]1
3. Cc1ncn(CC(=O)NN2CCOCC2)c1Cn1c(C)ccc(NS(=O)(=O)Cc2ccccc2)c1=O
4. N=C(N)N1CCC[C@@H](CNC(=O)[C@@H](Cc2ccccc2)NS(=O)(=O)c2ccc3ccccc3c2)C1
5. COC(=O)CC1(C(=O)Nc2ccc(-c3ccccc3C)cc2)CC(c2cccc(C(=N)N)c2)=NO1 (stereo unspecified)
6. CCN(C1CCCCC1)[C@@H](CC(=O)O)C(=O)N1CCCCC1CCOC1CCN(C(=N)N)CC1 (stereo partly specified)
7. CCC(=O)N1CCC[C@H]1C(=O)NCc1ccc(C(=N)N)cc1
8. N=C(N)NOCCCOc1cc(Cl)cc(C(=O)N2CCCCCC2)c1

6.72
7.92
8.72
7.49
5.74
7.80
4.85
6.33

Quick request: pKi for each listed item, please.
1. CCCS(=O)(=O)N[C@@H](C(=O)N[C@@H](CCSC)C(=O)NCc1ccc(C(=N)N)cc1)[C@@H](C)O
2. COc1ccc(-n2nc(C#N)c3c2C(=O)N(c2ccc(-c4ccccc4CN4CC[C@@H](O)C4)cc2)CC3)cc1
3. COC(=O)CC(CCc1ccc(C(N)=O)cc1)c1cccc(C(=N)N)c1 (stereo unspecified)
4. Cc1ncccc1CNC(=O)Cn1c(C)cnc(NCCc2ccccc2)c1=O

1: 5.47; 2: 7.00; 3: 5.19; 4: 6.55
